tested on: SN12C renal; assay: NCI-60 one-dose screen, 48 h (100 = growth as untreated, 0 = no growth, -100 = all killed); conditions: 10 µM unless noted
Compounds without any hit were thinned out: in the full panel of roughly 83,000, 20% have a hit.
Attribute measured: growth (%)
Number only, in %; omit the unit.

What the record says about Cc1nc2sc(C(=O)Nc3ccc(Cl)cc3)c(N)c2cc1C(O)c1ccccc1 (stereo not given) : growth is 40.6

In plain terms, `CCOC(=O)c1c(-c2ccccc2)n2c(=O)cc(C)c3c(O)c(O)cc1c32` has a documented growth of 68.7

The reported growth of the molecule `COc1ccc2nc(Cl)c(/C=C/C(=O)c3ccc(NC(=O)CSc4nnc(-c5ccc(Cl)c(Cl)c5)n4-c4ccccc4)cc3)cc2c1` was 88.2

growth reported for this molecule `CC(=O)N(Cc1ccccc1)c1nc2ccc(O)c(CN(C)C)c2s1` : 99.2

Looking up `CCCCCCCCn1ccc2cc(NC(=O)Cn3cc(CN4CCC(C)CC4)nn3)ccc21` , I see its growth listed as 33.5

Origin of values: PubChem BioAssay (NCI)
